Test system: MOLT-4
Assay: NCI tumour cell line growth inhibition, 48 h
Activity calls are given as the source filed them. Rule as the data show it: active = GI50 up to about 1.1 µM and inactive = higher.
quantityName: GI50

Some molecules with recorded GI50:
[
  {
    "molecule": "Cc1c2ccncc2c(C)c2c1[nH]c1ccc(O)c(OCC(F)(F)F)c12",
    "targetDesc": "MOLT-4",
    "GI50": "2.01 µM (inactive)"
  },
  {
    "molecule": "O=c1[nH]nc(Cc2ccccc2)n1/N=C\\CC/C=N\\n1c(Cc2ccccc2)n[nH]c1=O",
    "targetDesc": "MOLT-4",
    "GI50": "31.1 µM (inactive)"
  },
  {
    "molecule": "CCCCCCCCCCc1c2nc(c(CCCCCCCCCC)c3ccc([nH]3)c(CCCCCCCCCC)c3nc(c(CCCCCCCCCC)c4ccc1[nH]4)C=C3)C=C2",
    "targetDesc": "MOLT-4",
    "GI50": "> 100 µM (inactive)"
  },
  {
    "molecule": "CCN(CC)CCCNC(=O)c1ccccc1Nc1c(Cl)cccc1Cl",
    "targetDesc": "MOLT-4",
    "GI50": "11.8 µM (inactive)"
  },
  {
    "molecule": "CC1Cc2cc(O)ccc2C2[C@@H]1C1CC[C@H](O)[C@@]1(C)C[C@@H]2O[N+](=O)[O-] (some centres undefined)",
    "targetDesc": "MOLT-4",
    "GI50": "7.48 µM (inactive)"
  },
  {
    "molecule": "[N-]=[N+]=NC(c1cn(C2CC(O)C(CO)O2)c(=O)[nH]c1=O)C(Cl)I (centres undefined)",
    "targetDesc": "MOLT-4",
    "GI50": "> 100 µM (inactive)"
  }
]

For each entry beneath this line, provide reported GI50.
1. CC(=O)Oc1c(OC(C)=O)c(-c2ccc(O)c(O)c2)c(O)c(O)c1-c1ccc(O)cc1
2. CC1=CC(C)(C)N=C2SC(c3ccc(Cl)cc3)=NN12
3. O=C(c1c(F)c(F)c(F)c(F)c1F)N1CCN(C(=O)c2c(F)c(F)c(F)c(F)c2F)C1=S

## Result
1. > 100 µM (inactive)
2. 14.9 µM (inactive)
3. 2.77 µM (inactive)

====

Tested on: HCC 2998
Test: NCI tumour cell line growth inhibition, 48 h
The source made the active and inactive calls. Rule as the data show it: active = GI50 up to about 1.1 µM and inactive = higher.
Form entry, call: pick from class 1 = active, class 0 = inactive

Field: example entries. Status: answers known.
[
  {
    "compound": "Sc1nnc(COc2ccc(Cl)cc2)o1",
    "category": "class 0"
  },
  {
    "compound": "C=CC[P@]1(=O)O[C@H](c2ccccc2)[C@H](C)N1C",
    "category": "class 0"
  }
]

## Task Field: outcome | Entry: `Cc1ccc(S(=O)(=O)c2ccccn2)cc1`
## Result class 0

## Task Please give the result for COc1ccc2c(c1)CCN1CCCc3ccccc3C21 (stereo not given) too.
## Result class 0

## Task Please give the result for `CC(C)(CN1CCCCC1)C(=O)/C=C/c1ccccc1` too.
## Result class 0

====

Kindly supply the reported GI50 values for the records listed here.
System: SF-539
Test: NCI tumour cell line growth inhibition, 48 h
Active and inactive are the calls of the source. No stated cut-off is given here; in the data, active = GI50 up to about 1.1 µM and inactive = higher.

[
  {
    "compound": "Cc1cccc2sc(-c3ccc(O)cc3)nc12",
    "GI50": "21.5 µM (inactive)"
  }
]

For each entry beneath this line, provide reported GI50.
1. CCOC(=O)c1cc(C2(O)CCN(CC(C)CC)C2=O)c(-c2cc(C)no2)[nH]1 (stereo not given)
2. CCOC(=O)c1nc2ccc(C(F)(F)F)cc2nc1Oc1cc(OC)c(OC)c(OC)c1
3. COc1cc(/C=C/C(=O)CC(=O)/C=C/c2ccc(OC(=O)CCCCC3CCSS3)c(OC)c2)ccc1OC(=O)CCCCC1CCSS1 (stereo not given)

## Result
> 100 µM (inactive)
62.2 µM (inactive)
> 100 µM (inactive)

## Task Which measured GI50 value corresponds to `O=C1C(Sc2ccc3ccccc3c2)=C(Sc2ccc3ccccc3c2)C(=O)c2ccccc21` ?
## Result 10.2 µM (inactive)
